In this section, each of the binders is paired with its reported EC50.
Biological target: T1, human SLC34A2 (human, UniProt O95436 1-690)
T1 construct: whole, on cells; also called human solute carrier 34 A2; NaPi2b
T1 sequence (looked up): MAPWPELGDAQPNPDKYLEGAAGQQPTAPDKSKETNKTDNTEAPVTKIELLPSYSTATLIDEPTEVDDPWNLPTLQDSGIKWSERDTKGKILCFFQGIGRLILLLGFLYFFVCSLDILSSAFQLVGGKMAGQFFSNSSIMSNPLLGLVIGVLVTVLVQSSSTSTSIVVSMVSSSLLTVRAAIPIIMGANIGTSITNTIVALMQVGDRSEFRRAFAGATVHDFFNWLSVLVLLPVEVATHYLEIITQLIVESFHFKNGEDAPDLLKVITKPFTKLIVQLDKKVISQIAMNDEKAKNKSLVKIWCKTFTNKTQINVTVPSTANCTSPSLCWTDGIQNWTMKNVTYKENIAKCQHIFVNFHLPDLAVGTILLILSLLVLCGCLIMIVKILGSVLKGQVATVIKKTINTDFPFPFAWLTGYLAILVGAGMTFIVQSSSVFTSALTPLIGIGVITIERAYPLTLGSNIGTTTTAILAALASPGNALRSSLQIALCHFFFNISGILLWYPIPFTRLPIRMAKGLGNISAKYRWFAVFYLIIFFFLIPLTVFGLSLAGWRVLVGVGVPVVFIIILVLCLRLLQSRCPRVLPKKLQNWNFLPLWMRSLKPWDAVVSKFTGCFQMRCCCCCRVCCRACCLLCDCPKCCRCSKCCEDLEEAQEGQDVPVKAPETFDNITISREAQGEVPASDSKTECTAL
Test: FACS, HEK293/human SLC34A2 cells
The response must be a number in nM with no trailing unit.

Below, each entry is followed by its recorded EC50 result.
62G10E4G8.p3.z15 hIgG1 (antibody, V domains shown, humanized hIgG1) VH: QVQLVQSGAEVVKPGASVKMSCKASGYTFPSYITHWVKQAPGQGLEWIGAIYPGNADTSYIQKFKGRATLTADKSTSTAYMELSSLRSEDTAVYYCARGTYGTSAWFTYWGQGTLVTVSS VL: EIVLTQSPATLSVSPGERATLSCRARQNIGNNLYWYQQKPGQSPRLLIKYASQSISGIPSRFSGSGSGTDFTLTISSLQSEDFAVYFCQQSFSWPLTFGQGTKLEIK: 2.34
30H9B8F9.p1.z6 hIgG1 (antibody, V domains shown, humanized hIgG1) VH: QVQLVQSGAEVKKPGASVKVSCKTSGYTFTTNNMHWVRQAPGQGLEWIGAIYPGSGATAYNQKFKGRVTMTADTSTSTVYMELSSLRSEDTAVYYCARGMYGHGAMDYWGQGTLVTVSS VL: DIQLTQSPSFLSASVGDRVTITCKASQDVGTAVAWYQQKPGKSPKLLIYWATTRHSGVPDRFSGSGSGTEFTFTISSLQPEDFATYFCQQYSSNPLTFGQGTKLEIK: 1.94
62G10E4G8 VH_P3/VL hIgG1 (antibody, V domains shown, PTM-derisked chimeric, hIgG1; that P3 is the NA version follows from the humanized .p3 chains; also called 62G10E4G8.p3 hIgG1) VH: QVQLQQSGAEVVKPGASVKMSCKASGYTFPSYITHWVKQTPGQGLEWIGAIYPGNADTSYIQKFKGKATLTADKSSSTAYMQLSSLTSEDSAVYYCARGTYGTSAWFTYWGQGTLVTVSA VL: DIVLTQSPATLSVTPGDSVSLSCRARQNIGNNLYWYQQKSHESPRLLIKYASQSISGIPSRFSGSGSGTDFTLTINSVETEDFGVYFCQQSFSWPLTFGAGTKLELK: 9.08
xi30H9B8F9 hIgG1 (antibody, V domains shown, chimeric, hIgG1) VH: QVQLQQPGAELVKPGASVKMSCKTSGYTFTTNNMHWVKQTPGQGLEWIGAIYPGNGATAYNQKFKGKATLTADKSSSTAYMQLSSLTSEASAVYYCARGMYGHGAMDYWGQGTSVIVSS VL: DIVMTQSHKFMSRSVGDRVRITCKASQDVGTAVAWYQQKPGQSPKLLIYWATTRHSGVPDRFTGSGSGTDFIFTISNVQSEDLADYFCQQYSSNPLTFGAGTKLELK: 1.63

EC50 for 91C9F1.p1 hIgG1 (antibody, V domains shown, PTM-derisked chimeric, hIgG1; also called 91C9F1.pl hIgG1) VH: EVQLQQSGPELVKPGTSVKISCKTSGFFFTEYIIHWVKQSHGRSLEWIGGIIPNNDVTNYKQNFRGKAALTADKSSNTAYMELRSLTSEDSAVYYCARWRNAYYSAMDSWGQGTSVTVSS VL: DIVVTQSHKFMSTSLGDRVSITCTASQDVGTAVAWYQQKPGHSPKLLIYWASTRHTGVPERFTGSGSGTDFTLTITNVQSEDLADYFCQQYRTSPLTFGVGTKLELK is 2.29
